assayed_system: Relaxin receptor 1 (Homo sapiens) (UniProt Q9HBX9)
protocol: Agonist activity at RXFP1 receptor (unknown origin) expressed in HEK293 cells assessed as stimulation of cAMP production incubated for 30 mins by TR-FRET based HTRF assay relative to forskolin
Type: functional, cell-based
Calls of active or inactive are those of the source. The calls are words filed in the database; no cut-off is given here.
reported_endpoint: %max

[[record]]
smiles_notation = "O=C(Nc1ccccc1C(=O)Nc1cccc(C(F)(F)F)c1)c1ccc(Br)cc1"
test_value = "93%"

[[record]]
smiles_notation = "Cc1ccc(CNC(=O)c2ccccc2NC(=O)C2CCCCC2)o1"
test_value = "31%"

[[record]]
smiles_notation = "O=C(Nc1cccc(C(F)(F)F)c1)c1ccccc1NC(=O)c1ccccc1OCCN1CCNCC1"
test_value = "inactive"

[[record]]
smiles_notation = "O=C(Nc1ccccc1C(=O)Nc1cccc(S(=O)(=O)C(F)(F)F)c1)c1ccccc1I"
test_value = "85%"

[[record]]
smiles_notation = "CCCCOc1ccccc1C(=O)Nc1ccccc1C(=O)Nc1cccc(S(=O)(=O)C(F)(F)F)c1"
test_value = "98%"

[[record]]
smiles_notation = "CCOc1ccccc1C(=O)Nc1ccccc1C(=O)Nc1cccc(C#N)c1"
test_value = "96%"

[[record]]
smiles_notation = "O=C(Nc1cccc(C(F)(F)F)c1)c1ccccc1OCCN1CCOCC1"
test_value = "inactive"

[[record]]
smiles_notation = "O=C(Nc1cccc(C(F)(F)F)c1)c1ccccc1NC(=O)C1CCCCC1"
test_value = "92%"

[[record]]
smiles_notation = "COc1ccccc1CNc1ccccc1C(=O)Nc1cccc(C(F)(F)F)c1"
test_value = "57%"

[[record]]
smiles_notation = "O=C(Nc1ccccc1C(=O)Nc1cccc(C(F)(F)F)c1)c1cccc(Br)c1"
test_value = "97%"

[[record]]
smiles_notation = "COc1ccccc1C(=O)Nc1ccccc1C(=O)Nc1cccc(C(F)(F)F)c1"
test_value = "99%"

[[record]]
smiles_notation = "O=C(Nc1cccc(C(F)(F)F)c1)c1ccccc1NCCc1ccccc1"
test_value = "83%"

[[record]]
smiles_notation = "CCCOc1ccccc1C(=O)Nc1ccccc1C(=O)Nc1cccc(S(=O)(=O)C(F)(F)F)c1"
test_value = "98%"

[[record]]
smiles_notation = "CCOc1ccccc1C(=O)NCCC(=O)Nc1cccc(S(=O)(=O)C(F)(F)F)c1"
test_value = "90%"

[[record]]
smiles_notation = "CNCCOc1ccccc1C(=O)Nc1ccccc1C(=O)Nc1cccc(C(F)(F)F)c1"
test_value = "92%"

[[record]]
smiles_notation = "O=C(Nc1ccccc1C(=O)Nc1cccc(C(F)(F)F)c1)c1ccco1"
test_value = "81%"

[[record]]
smiles_notation = "COCCNc1ccccc1C(=O)Nc1cccc(C(F)(F)F)c1"
test_value = "63%"

[[record]]
smiles_notation = "CCOc1ccccc1C(=O)Nc1ccccc1C(=O)Nc1cccc(C(C)(C)C)c1"
test_value = "93%"

[[record]]
smiles_notation = "O=C(Nc1cccc(C(F)(F)F)c1)c1ccccc1-c1ccccc1OCc1ccccc1"
test_value = "inactive"

[[record]]
smiles_notation = "O=C(Nc1cccc(C(F)(F)F)c1)c1cccc(NC(=O)C2CCCCC2)c1"
test_value = "inactive"

[[record]]
smiles_notation = "O=C(Nc1ccc(F)cc1)c1ccccc1NC(=O)C1CCCCC1"
test_value = "74%"


----------
protocol: Solubility in PBS buffer
Assay type: physicochemical
Parameter: solubility. Scope: all listed entries.
reported_endpoint: solubility (µM)

[[record]]
smiles_notation = "O=C(Nc1ccccc1C(=O)Nc1cccc(C(F)(F)F)c1)c1cccnc1"
reported_endpoint = "solubility"
cmp = "="
test_value = 7

[[record]]
smiles_notation = "O=C(Nc1ccccc1C(=O)Nc1cccc(C(F)(F)F)c1)c1ccncc1"
reported_endpoint = "solubility"
cmp = "="
test_value = 17

[[record]]
smiles_notation = "O=C(Nc1cccc(C(F)(F)F)c1)c1ccccc1NC(=O)c1cccc2nc[nH]c12"
reported_endpoint = "solubility"
cmp = "="
test_value = 6.3

[[record]]
smiles_notation = "O=C(Nc1cccc(C(F)(F)F)c1)c1ccccc1NC(=O)C1CCCCC1"
reported_endpoint = "solubility"
cmp = "="
test_value = 5.3

[[record]]
smiles_notation = "O=C(Nc1ccc2cc[nH]c2c1)c1ccccc1NC(=O)C1CCCCC1"
reported_endpoint = "solubility"
cmp = "="
test_value = 1.7

[[record]]
smiles_notation = "O=C(Nc1ccccc1C(=O)Nc1cccc(C(F)(F)F)c1)c1cccs1"
reported_endpoint = "solubility"
cmp = "="
test_value = 3.3

[[record]]
smiles_notation = "O=C(Nc1ccccc1C(=O)Nc1cccc(C(F)(F)F)c1)c1ccno1"
reported_endpoint = "solubility"
cmp = "<"
test_value = 1.1

[[record]]
smiles_notation = "O=C(Nc1ccccc1C(=O)Nc1cccc(C(F)(F)F)c1)c1ccc2c(c1)OCO2"
reported_endpoint = "solubility"
cmp = "="
test_value = 2.9


----------
assayed_system: Relaxin receptor 1 (Homo sapiens, UniProt Q9HBX9)
Sequence (Q9HBX9 whole entry): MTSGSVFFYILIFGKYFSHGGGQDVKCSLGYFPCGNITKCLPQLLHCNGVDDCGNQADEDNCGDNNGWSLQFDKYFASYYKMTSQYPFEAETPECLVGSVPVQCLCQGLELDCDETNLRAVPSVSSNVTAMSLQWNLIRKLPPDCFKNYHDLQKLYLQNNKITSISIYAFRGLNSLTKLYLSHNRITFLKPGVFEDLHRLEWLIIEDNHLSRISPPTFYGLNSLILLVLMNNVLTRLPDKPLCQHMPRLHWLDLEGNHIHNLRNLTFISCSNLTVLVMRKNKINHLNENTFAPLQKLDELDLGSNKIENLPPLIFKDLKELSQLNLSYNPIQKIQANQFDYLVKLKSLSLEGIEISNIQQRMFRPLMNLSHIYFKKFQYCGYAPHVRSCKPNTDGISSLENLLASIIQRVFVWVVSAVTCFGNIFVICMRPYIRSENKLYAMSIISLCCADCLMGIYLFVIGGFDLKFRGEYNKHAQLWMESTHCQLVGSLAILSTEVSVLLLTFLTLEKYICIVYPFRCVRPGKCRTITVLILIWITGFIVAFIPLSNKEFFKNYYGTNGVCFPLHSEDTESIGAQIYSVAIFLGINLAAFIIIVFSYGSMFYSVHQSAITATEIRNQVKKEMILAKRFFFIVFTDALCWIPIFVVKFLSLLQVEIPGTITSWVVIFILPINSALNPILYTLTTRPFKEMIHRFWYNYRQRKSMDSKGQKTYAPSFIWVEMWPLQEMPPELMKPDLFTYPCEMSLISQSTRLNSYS
protocol: Agonist activity at RXFP1 receptor (unknown origin) expressed in HEK293 cells assessed as stimulation of cAMP production incubated for 30 mins by TR-FRET based HTRF assay
Assay type: functional, cell-based
setup_conditions: read-out: AC50
reported_endpoint: AC50 (µM)

[[record]]
smiles_notation = "O=C(Cc1ccccc1)Nc1ccccc1C(=O)Nc1cccc(C(F)(F)F)c1"
unit_label = "µM"
test_value = 8.38

[[record]]
smiles_notation = "CC(=O)c1ccc(C(=O)Nc2ccccc2C(=O)Nc2cccc(C(F)(F)F)c2)cc1"
unit_label = "µM"
test_value = 5.93

[[record]]
smiles_notation = "O=C(Nc1cccc(Br)c1)c1ccccc1NC(=O)C1CCCCC1"
unit_label = "µM"
test_value = 2.65

[[record]]
smiles_notation = "CCOc1ccccc1C(=O)Nc1ccncc1C(=O)Nc1cccc(S(=O)(=O)C(F)(F)F)c1"
unit_label = "µM"
test_value = 0.747

[[record]]
smiles_notation = "CCOc1ccccc1C(=O)Nc1ccccc1CNc1cccc(S(=O)(=O)C(F)(F)F)c1"
unit_label = "µM"
test_value = 2.65

[[record]]
smiles_notation = "O=C(Nc1ccccc1C(=O)Nc1cccc(C(F)(F)F)c1)c1ccccc1Br"
unit_label = "µM"
test_value = 7.47

[[record]]
smiles_notation = "O=C(Nc1cccc([N+](=O)[O-])c1)c1ccccc1NC(=O)C1CCCCC1"
unit_label = "µM"
test_value = 5.93

[[record]]
smiles_notation = "O=C(Nc1cccc(C(F)(F)F)c1)c1ccccc1NC(=O)c1ccccc1OCCN1CCOCC1"
unit_label = "µM"
test_value = 4.71

[[record]]
smiles_notation = "COc1ccccc1C(=O)Nc1ccccc1C(=O)N(C)c1cccc(C(F)(F)F)c1"
unit_label = "µM"
test_value = 29.7

[[record]]
smiles_notation = "CCCCC(=O)Nc1ccccc1C(=O)Nc1cccc(C(F)(F)F)c1"
unit_label = "µM"
test_value = 5.29


----------
protocol: Half life in mouse liver microsomes
Type: ADME
reported_endpoint: half-life (h)

[[record]]
smiles_notation = "O=C(Nc1ccccc1C(=O)Nc1cccc(C(F)(F)F)c1)c1cccs1"
reported_endpoint = "half-life"
unit_label = "h"
test_value = 1.67


----------
assayed_system: Vasopressin V1b receptor (Homo sapiens)
Sequence (P47901 whole entry): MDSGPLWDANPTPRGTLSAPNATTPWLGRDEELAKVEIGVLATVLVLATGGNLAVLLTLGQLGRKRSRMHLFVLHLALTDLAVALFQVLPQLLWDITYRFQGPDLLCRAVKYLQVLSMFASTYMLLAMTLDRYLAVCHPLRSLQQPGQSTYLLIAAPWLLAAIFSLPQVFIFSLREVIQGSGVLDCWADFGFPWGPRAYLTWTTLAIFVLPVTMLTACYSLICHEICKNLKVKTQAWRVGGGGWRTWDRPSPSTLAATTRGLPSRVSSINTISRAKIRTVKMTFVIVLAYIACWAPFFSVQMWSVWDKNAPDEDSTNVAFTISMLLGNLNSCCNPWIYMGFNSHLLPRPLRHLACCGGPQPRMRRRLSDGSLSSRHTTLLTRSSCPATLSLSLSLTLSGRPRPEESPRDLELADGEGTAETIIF
protocol: Agonist activity at vasopressin receptor 1b (unknown origin) expressed in HEK293 cells assessed as stimulation of cAMP production incubated for 30 mins by HTRF assay
Type: functional, cell-based
reported_endpoint: AC50

[[record]]
smiles_notation = "O=C(Nc1ccccc1C(=O)Nc1cccc(C(F)(F)F)c1)c1ccno1"
reported_endpoint = "AC50"
test_value = "Not Active"

[[record]]
smiles_notation = "O=C(Nc1ccccc1C(=O)Nc1cccc(C(F)(F)F)c1)c1cccnc1"
reported_endpoint = "AC50"
test_value = "Not Active"

[[record]]
smiles_notation = "O=C(Nc1ccccc1C(=O)Nc1cccc(C(F)(F)F)c1)c1cccs1"
reported_endpoint = "AC50"
test_value = "Not Active"

[[record]]
smiles_notation = "O=C(Nc1ccccc1C(=O)Nc1cccc(C(F)(F)F)c1)c1ccncc1"
reported_endpoint = "AC50"
test_value = "Not Active"

[[record]]
smiles_notation = "O=C(Nc1cccc(C(F)(F)F)c1)c1ccccc1NC(=O)c1cccc2nc[nH]c12"
reported_endpoint = "AC50"
test_value = "Not Active"

[[record]]
smiles_notation = "O=C(Nc1ccccc1C(=O)Nc1cccc(C(F)(F)F)c1)c1ccc2c(c1)OCO2"
reported_endpoint = "AC50"
test_value = "Not Active"

[[record]]
smiles_notation = "O=C(Nc1ccc2cc[nH]c2c1)c1ccccc1NC(=O)C1CCCCC1"
reported_endpoint = "AC50"
test_value = "Not Active"

[[record]]
smiles_notation = "O=C(Nc1cccc(C(F)(F)F)c1)c1ccccc1NC(=O)C1CCCCC1"
reported_endpoint = "AC50"
test_value = "Not Active"

